Where these numbers come from: paper PMC5479578

Quick reference: Kd of the listed items.
Target: PDZ1 of NHERF1 (Homo sapiens)
Sequence (O14745 1-140): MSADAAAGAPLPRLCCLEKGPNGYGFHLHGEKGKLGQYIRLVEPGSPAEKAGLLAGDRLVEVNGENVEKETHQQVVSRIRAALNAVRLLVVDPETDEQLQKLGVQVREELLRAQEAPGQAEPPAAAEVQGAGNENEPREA
Assay: Isothermal titration calorimetry, NHERF1 PDZ1
Type: binding
Ends that are not written are not given here.
A number alone suffices; assume µM.

Consider the worked cases shown below.
INSERT INTO assay_data (item_sequence, readout_label, units, endpoint_value) VALUES
  ('QEAWETVM [QEAWETVM]', 'Kd', 'µM', 25.5),
  ('QAEWETVM [QAEWETVM]', 'Kd', 'µM', 13.1),
  ('QEEWATVM [QEEWATVM]', 'Kd', 'µM', 34.2);

We next turn to a different sequence, shown below.
Look up Kd: QAAWETVM [QAAWETVM]
24.4
